test system: MALME3 melanoma viability, CellTiter-Glo luminescence, 24 h; test: MALME3 melanoma cell viability loss, dose response, orthogonal assay for MITF inhibitor project, CellTiter-Glo, dry powder samples (AID 540339)
Consider the following compounds; for each one, report its AC50.

The compound listed as COc1ccc(S(=O)(=O)N(C(C)=O)c2ccc(OC(C)=O)c3ccccc23)cc1[N+](=O)[O-] has a reported AC50 of 4.21 µM

The compound listed as N=c1n(CCN2CCCC2)c2ccccc2n1CC(O)c1ccc(Cl)c(Cl)c1 (centres undefined) has a reported AC50 of 18.6 µM

The compound listed as O=c1c(Cl)c2oc3ccccc3nc-2c2ccccc12 has a reported AC50 of 18.2 µM

The compound listed as O=C(COc1ccccc1)N/N=C/c1ccc([N+](=O)[O-])o1 has a reported AC50 of 19.1 µM

Data origin, for the record: PubChem BioAssay AID540339
